Values were extracted from paper PMC6039304.

test: hemolytic potential on red blood cells; type: cell-based, human; details: human, red blood cells from EDTA-preserved peripheral blood
observed-property: hemolysis at 1 h, 100 µM (%)
Write the number in % without appending the unit.

Query block: Check the records and state hemolysis at 1 h, 100 µM for CCCCCCCCCCCCCCCCOP(=O)([O-])OCC[N+](C)(C)C [HePC, hexadecylphosphocholine, reference compound]
Result block: 96.1
